The values you see were collected from patent US12060351B2.

target: IRAK4 enzyme (Homo sapiens, UniProt Q9NWZ3); construct: purchased Carna Biosciences, Chuo-ku, Kobe, Japan; test: IRAK4 Biochemical Assay (TR-FRET, STK1 KinEASE); conditions: 500 μM ATP, Table 2 second part (compounds 33-343), read-out: IC50 IRAK4-HTBS
Sequence (Q9NWZ3 whole entry): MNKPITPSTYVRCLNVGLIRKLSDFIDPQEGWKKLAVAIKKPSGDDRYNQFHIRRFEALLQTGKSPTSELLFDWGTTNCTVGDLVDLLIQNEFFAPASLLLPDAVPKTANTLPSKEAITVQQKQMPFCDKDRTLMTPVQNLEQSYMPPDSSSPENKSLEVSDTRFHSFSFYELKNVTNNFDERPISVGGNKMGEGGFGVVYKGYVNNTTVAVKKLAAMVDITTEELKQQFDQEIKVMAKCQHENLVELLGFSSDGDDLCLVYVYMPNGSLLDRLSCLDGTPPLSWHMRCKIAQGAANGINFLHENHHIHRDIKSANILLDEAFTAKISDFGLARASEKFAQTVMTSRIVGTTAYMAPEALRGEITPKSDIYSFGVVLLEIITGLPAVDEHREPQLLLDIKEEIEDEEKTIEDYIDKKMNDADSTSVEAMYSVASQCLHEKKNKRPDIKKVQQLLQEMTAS
IC50 for assorted compounds
The answer is to be given in nM; state only the numeric part.

Before answering, review these 5 worked examples.
CC(=O)N[C@@H]1[C@@H]2CC[C@H]1CN(c1nnc(-c3cnc(-c4ccc5cc(C#N)cnn45)cc3NC3CCOCC3)s1)C2    0.46
CNc1cc(-c2ccc3cc(C#N)cnn23)ncc1-c1nnc(N2C[C@H]3CC[C@@H](C2)[C@@H]3NC(C)=O)s1    0.2
CC(=O)N[C@@H]1[C@@H]2C[C@H]1CN(c1nnc(-c3cnc(-c4ccc5cc(C#N)cnn45)cc3NC3(C)COC3)s1)C2    0.57
CC(C)Nc1cc(-c2ccc3cc(C#N)cnn23)ncc1-c1nnc(N2C[C@H]3CC[C@@H](C2)[C@@H]3NC(=O)C(C)(C)O)s1    1.04
CC(=O)N[C@@H]1[C@@H]2CC[C@H]1CN(c1nnc(-c3cnc(-c4ccc5cc(C#N)cnn45)cc3NC3COC3)s1)C2    0.54

Continue with the next compound.
Form entry - test system: IRAK4 enzyme (Homo sapiens, UniProt Q9NWZ3); read-out: IC50; compound: "CC(C)Nc1cc(-c2ccc3cc(C#N)cnn23)ncc1-c1nnc([C@H]2CC[C@@H](NC(=O)C(C)(C)O)CC2)s1"
0.91
